I'd appreciate it if you could supply pIC50 values for the items below.
- Tested Target: human recombinant COX‐1 (Homo sapiens)
- Sequence (P23219 24-599): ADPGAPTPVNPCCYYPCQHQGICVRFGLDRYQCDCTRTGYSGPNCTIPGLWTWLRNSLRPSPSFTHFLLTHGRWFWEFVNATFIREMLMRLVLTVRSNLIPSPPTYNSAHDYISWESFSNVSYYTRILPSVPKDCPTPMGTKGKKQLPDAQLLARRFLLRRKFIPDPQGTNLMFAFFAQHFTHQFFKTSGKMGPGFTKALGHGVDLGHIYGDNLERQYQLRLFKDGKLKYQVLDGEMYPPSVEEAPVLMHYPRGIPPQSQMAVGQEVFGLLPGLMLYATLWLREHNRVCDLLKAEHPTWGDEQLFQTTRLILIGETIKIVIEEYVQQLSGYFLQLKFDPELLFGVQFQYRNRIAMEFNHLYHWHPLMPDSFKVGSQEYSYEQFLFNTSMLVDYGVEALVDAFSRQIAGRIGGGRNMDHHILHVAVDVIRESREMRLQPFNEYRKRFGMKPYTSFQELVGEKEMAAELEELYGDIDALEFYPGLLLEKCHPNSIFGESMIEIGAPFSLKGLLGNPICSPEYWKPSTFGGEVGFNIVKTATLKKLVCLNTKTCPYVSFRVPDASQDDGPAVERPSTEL
- Method Notes: In vitro fluorometric COX‐1 inhibitory assay
- Experimental Setup: human recombinant enzyme, mean ± SEM
Please express pIC50 as -log10 of the molar concentration.

Value wanted: pIC50 (human recombinant COX‐1 (Homo sapiens)) of entry COc1ccc(/C=C/C(=O)c2c(O)cc(O)c(C(=O)/C=C/c3ccc(OC)cc3)c2O)cc1
4.32

Value wanted: pIC50 (human recombinant COX‐1 (Homo sapiens)) of entry COc1cc(/C=C/C(=O)c2c(O)cc(O)c(C(=O)/C=C/c3ccc(O)c(OC)c3)c2O)ccc1O
4.43

Value wanted: pIC50 (human recombinant COX‐1 (Homo sapiens)) of entry COc1cc(/C=C/C(=O)c2c(OC)cc(OC)c(C(=O)/C=C/c3ccc(O)c(OC)c3)c2OC)ccc1O
4.62

Numbers sourced from paper PMC13110330.
